Ref: patent US20210079080A1

- Target Or Test System: T1, VEGF-121-His (inhouse production) (human, UniProt P15692 207-395)
- T1 construct: His-tagged human VEGF-A121 used in the ELISAs and (captured by an anti-His antibody) in SPR; also called hVEGF-A121; his VEGF; not shown: His tag
- T1 sequence: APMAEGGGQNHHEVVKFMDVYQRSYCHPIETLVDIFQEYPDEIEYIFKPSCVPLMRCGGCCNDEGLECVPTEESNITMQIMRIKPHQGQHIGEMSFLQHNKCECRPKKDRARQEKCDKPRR
- Assay Comment: SPR (Biacore), hVEGF-A121 captured by anti-His antibody, Fab injected, 37° C
Measured Quantity: pKd
Kindly note that pKd refers to -log10 of the concentration in mol/L and answer with the value alone.

Respond only with pKd recorded for HF2-1 Fab fragment (Fab, V domains shown, Prior art antibody disclosed in EP3006465) VH: EVQLVESGGGLVQPGGSLRLSCAASNFVFRSHGMQWVRQAPGKGLEYVAGISSDGSWTGYGAAVEGRFTISRDDSKNTAYLQMNSLRAEDTAVYYCARDFSTGYGADSIDAWGQGTLVTVSS VL: DIQMTQSPSSLSASVGDRVTITCSGGSDSAYGYGWYQQKPGKAPKTLIYWDDKRPSGVPSRFSGSRSGTDFTLTISSLQPEDFATYYCGAWEYSGGVGIFGQGTKVEIKR
9.24
